- targetOrTestSystem: α4β1 integrin (Jurkat cell adhesion to immobilized CS-1 derived peptide CLHPGEILDVPST) (Homo sapiens, UniProt P05556+P13612)
- Construct: 100 μl of Jurkat cells (2.5×10^6 cells/ml) in DMEM plus BSA
- Sequence (P13612 34-1032): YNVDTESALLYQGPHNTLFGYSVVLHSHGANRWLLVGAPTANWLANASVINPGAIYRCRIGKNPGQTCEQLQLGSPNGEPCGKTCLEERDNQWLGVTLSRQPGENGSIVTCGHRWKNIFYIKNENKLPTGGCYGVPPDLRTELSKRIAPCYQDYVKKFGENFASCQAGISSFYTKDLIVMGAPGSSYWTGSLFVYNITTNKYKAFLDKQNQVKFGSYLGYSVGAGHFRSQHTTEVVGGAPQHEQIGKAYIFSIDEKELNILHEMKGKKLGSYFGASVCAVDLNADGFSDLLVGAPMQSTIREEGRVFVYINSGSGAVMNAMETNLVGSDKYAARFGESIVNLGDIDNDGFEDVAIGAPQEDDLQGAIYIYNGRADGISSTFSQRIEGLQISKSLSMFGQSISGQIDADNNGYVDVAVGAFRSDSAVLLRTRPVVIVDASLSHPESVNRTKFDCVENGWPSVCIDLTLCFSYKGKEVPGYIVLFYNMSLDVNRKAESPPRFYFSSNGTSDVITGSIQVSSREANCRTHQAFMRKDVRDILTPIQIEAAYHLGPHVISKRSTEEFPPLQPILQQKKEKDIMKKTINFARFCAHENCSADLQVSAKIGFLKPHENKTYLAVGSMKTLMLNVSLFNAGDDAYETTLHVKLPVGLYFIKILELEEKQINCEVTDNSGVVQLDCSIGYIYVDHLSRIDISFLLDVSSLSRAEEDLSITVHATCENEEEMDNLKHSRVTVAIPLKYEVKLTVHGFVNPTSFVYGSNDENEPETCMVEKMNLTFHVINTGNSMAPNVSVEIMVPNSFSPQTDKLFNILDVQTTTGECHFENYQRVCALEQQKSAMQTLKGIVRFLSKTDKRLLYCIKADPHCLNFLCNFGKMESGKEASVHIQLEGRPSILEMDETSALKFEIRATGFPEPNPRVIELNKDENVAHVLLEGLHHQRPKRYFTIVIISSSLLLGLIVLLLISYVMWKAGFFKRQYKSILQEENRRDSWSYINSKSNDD
- Sequence (P05556 21-798): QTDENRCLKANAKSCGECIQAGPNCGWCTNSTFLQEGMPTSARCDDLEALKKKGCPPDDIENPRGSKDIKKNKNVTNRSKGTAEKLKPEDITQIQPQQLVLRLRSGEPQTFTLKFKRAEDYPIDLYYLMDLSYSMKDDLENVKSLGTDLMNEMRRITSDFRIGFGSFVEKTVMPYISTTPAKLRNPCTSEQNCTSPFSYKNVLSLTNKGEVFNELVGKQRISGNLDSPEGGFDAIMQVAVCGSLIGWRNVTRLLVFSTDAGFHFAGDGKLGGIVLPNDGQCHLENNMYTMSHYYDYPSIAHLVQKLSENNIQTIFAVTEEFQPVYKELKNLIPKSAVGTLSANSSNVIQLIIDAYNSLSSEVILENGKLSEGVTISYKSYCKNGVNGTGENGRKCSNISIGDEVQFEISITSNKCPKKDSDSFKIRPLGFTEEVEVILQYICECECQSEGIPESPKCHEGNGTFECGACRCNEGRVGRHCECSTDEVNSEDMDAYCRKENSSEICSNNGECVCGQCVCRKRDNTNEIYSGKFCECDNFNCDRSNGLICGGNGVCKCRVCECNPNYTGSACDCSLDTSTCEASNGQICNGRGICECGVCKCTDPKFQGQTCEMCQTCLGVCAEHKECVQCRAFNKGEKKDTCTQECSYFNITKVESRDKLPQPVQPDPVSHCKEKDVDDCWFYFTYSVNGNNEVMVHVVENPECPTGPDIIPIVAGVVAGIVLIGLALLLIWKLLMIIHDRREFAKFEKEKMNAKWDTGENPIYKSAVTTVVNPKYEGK
- assayDetails: Jurkat-CS-1 assay
- measurementContext: Jurkat cells on CS-1 peptide coated plates; read-out: JK/CS-1 (Jurkat CS-1 Assay IC50 value range)
Catalogue of IC50 readings, one per entry.

1) O=C(O)c1ccccc1C(=O)N1CCCC[C@H]1C(=O)N[C@@H](Cc1ccc(NC(=O)c2c(Cl)cccc2Cl)cc1)C(=O)O [Example 181]; 50 to 750 nM
2) O=C(Nc1ccc(C[C@H](NC(=O)[C@@H]2CCCCN2C(=O)c2ccc([N+](=O)[O-])o2)C(=O)O)cc1)c1c(Cl)cccc1Cl [Example 191]; 50 to 750 nM
3) O=C(Nc1ccc(C[C@H](NC(=O)[C@@H]2CSCN2C(=O)c2cc(O)c3ccccc3n2)C(=O)O)cc1)c1c(Cl)cccc1Cl [Example 242]; 50 to 750 nM
4) COC(=O)[C@H](Cc1ccc(NC(=O)c2c(Cl)cccc2Cl)cc1)NC(=O)[C@H]1CSCN1C(=O)NC(C)(C)C [Example 6]; ≥ 750 nM
5) COC(=O)[C@H](Cc1ccc(NC(=O)c2c(Cl)cccc2Cl)cc1)NC(=O)[C@H]1CSCN1C(=O)OCc1ccccc1 (relative stereo) [Example 20]; ≥ 750 nM

Looking for the measured IC50 of O=C(O)c1cccc(C(=O)N2CCCC[C@H]2C(=O)N[C@@H](Cc2ccc(NC(=O)c3c(Cl)cccc3Cl)cc2)C(=O)O)n1 [Example 186] , can you help?
≤ 50 nM

###

Catalogue of melting point readings, one per entry.

Looking for the measured melting point of COC(=O)[C@H](Cc1ccc(NC(=O)c2c(Cl)cccc2Cl)cc1)NC(=O)[C@H]1CSCN1C(=O)N1CCOCC1 [Example 56] , can you help?
223 to 225 °C

###

- targetOrTestSystem: α4β1 integrin (Jurkat cell adhesion to immobilized CS-1 derived peptide CLHPGEILDVPST) (Homo sapiens, UniProt P05556+P13612)
- Construct: 100 μl of Jurkat cells (2.5×10^6 cells/ml) in DMEM plus BSA
- assayDetails: Jurkat-CS-1 assay
- measurementContext: Jurkat cells on CS-1 peptide coated plates; read-out: JK/CS-1 (Jurkat CS-1 Assay IC50 value range)
pIC50: −log10 of the molar value.
endpoint: pIC50

Some entries whose results are on file:
1) C[C@H](c1ccccc1)N1[C@H](C(=O)O)C[C@H]1C(=O)N[C@@H](Cc1ccc(NC(=O)c2c(Cl)cccc2Cl)cc1)C(=O)O; 6.12 to 7.30
2) CCOC(=O)N1CSC[C@@H]1C(=O)N[C@@H](Cc1ccc(C(=O)Nc2c(Cl)cc(Cl)cc2Cl)cc1)C(=O)O; 6.12 to 7.30

Query compound follows.
Looking for the measured pIC50 of O=C(Nc1ccc(C[C@H](NC(=O)[C@H]2CSCN2C(=O)OCC2c3ccccc3-c3ccccc32)C(=O)O)cc1)c1c(Cl)cccc1Cl (relative stereo) , can you help?
6.12 to 7.30

###

- targetOrTestSystem: α4β1 integrin (Jurkat cell adhesion to immobilized CS-1 derived peptide CLHPGEILDVPST) (Homo sapiens, UniProt P05556+P13612)
- Construct: 100 μl of Jurkat cells (2.5×10^6 cells/ml) in DMEM plus BSA
- assayDetails: Jurkat-CS-1 assay
- measurementContext: Jurkat cells on CS-1 peptide coated plates; read-out: JK/CS-1 (Jurkat CS-1 Assay IC50 value range)
Catalogue of IC50 readings, one per entry.

Some entries whose results are on file:
1. CCOC(=O)N1CSC[C@@H]1C(=O)N[C@@H](Cc1ccc(OCc2c(Cl)cccc2Cl)cc1)C(=O)OC (relative stereo); 50 to 750 nM
2. O=C(O)CCC(=O)N1CCSC[C@H]1C(=O)N[C@@H](Cc1ccc(NC(=O)c2c(Cl)cccc2Cl)cc1)C(=O)O (relative stereo); ≤ 50 nM
3. COC(=O)[C@H](Cc1ccc(NC(=O)c2c(Cl)cccc2Cl)cc1)NC(=O)[C@H]1CSC(C)(C)N1C(C)=O; 50 to 750 nM

Looking for the measured IC50 of O=C(Nc1ccc(C[C@H](NC(=O)[C@H]2CSCN2C(=O)OC23CC4CC(CC(C4)C2)C3)C(=O)O)cc1)c1c(Cl)cccc1Cl (relative stereo) , can you help?
≤ 50 nM

Looking for the measured IC50 of COC(=O)[C@H](Cc1ccc(NC(=O)c2c(Cl)cccc2Cl)cc1)NC(=O)[C@H]1CSCN1C(=O)OC12CC3CC(CC(C3)C1)C2 (relative stereo) , can you help?
≥ 750 nM

Looking for the measured IC50 of COC(=O)CCC(=O)N1CSC[C@@H]1C(=O)N[C@@H](Cc1ccc(NC(=O)c2c(Cl)cccc2Cl)cc1)C(=O)OC (relative stereo) , can you help?
50 to 750 nM

Origin of values: patent US6685617B1
